B1: C10orf62 (parent)
chain: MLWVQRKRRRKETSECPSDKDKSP

Variants of: B1
TEST_SUMMARY: protein stability index of a GFP-peptide fusion (GPS, HEK-293T) (PSI 1-6); higher = more stable;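 further: lentivirally expressed fusions sorted by FACS into six bins by GFP to DsRed ratio, PSI derived from sequencing read proportions per bin multiplied by bin number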
PARTICULARS: c terminus: a fixed tail appended
MEASUREMENT_LABEL: protein stability index
One number for each entry.

Use the examples below as a reference point.
Return protein stability index for the following variant: E12V
2.93

Return protein stability index for the following variant: S18D
3.07

Return protein stability index for the following variant: C16I
2.95

Return protein stability index for the following variant: P17L
2.98

Alright, here's another variant for you.
Return protein stability index for the following variant: K22G
2.97

# credit: the supplement of paper PMC10567573
